Assay: physchem
Settings: pH 7
Property: chromatographic logD
Hey, just send me the number, nothing else.

Some solved entries appear below for comparison.
INSERT INTO results (molecule, property, measured_value) VALUES
  ('C=C[C@@]12CCc3cc(O)ccc3[C@H]1[C@@H](CCCCCN1CCCC1)C[C@@]1(C)[C@H]2CC[C@@H]1O [Compound 26a]', 'chromatographic logD', 4),
  ('C=C[C@@]12CCc3cc(O)ccc3[C@H]1[C@@H](CCCCC(O)C(F)(F)F)C[C@@]1(C)[C@H]2CC[C@@H]1O (single isomer, unassigned) [15a D2]', 'chromatographic logD', 3.6);

Would you kindly look at the next entry?
Could you share which chromatographic logD value was measured for C=C[C@@]12CCc3cc(O)ccc3[C@H]1[C@@H](CCCCCCN1CCCC1)C[C@@]1(C)[C@H]2CC[C@@H]1O [Compound 26b] ? 4.2

====

Biological target: ERβ (Homo sapiens)
Construct: pSG5-ERα/β FL (Heg0/ERβ0); expressed in transfected cells; host or cells: U-20S (U-2 OS) cells, transient transfection with FuGENE 6
Sequence (Q92731 whole entry, species assumed): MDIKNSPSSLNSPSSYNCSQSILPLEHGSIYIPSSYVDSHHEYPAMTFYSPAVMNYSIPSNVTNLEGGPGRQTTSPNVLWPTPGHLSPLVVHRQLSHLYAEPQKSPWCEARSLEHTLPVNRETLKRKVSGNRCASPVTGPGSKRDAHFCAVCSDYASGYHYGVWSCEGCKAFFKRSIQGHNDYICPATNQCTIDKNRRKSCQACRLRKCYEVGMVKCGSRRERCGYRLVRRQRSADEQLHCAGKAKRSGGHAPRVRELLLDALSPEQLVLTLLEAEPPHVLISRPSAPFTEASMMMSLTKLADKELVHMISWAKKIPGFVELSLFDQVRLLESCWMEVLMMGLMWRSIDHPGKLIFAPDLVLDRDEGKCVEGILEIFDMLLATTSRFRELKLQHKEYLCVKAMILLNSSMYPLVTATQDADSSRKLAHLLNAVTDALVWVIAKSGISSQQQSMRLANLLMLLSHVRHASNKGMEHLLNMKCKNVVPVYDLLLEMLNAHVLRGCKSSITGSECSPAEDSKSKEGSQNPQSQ
Test: Transactivation test for estrogenic agonists and antagonists, ERβ, U-20S cells, luciferase reporter
Type: cell-based
Conditions: U-20S cells, potency relative to reference fulvestrant = 100
Use 1 when the recorded EMR (EC50 )[%] ERβ is no lower than 50%; use -1 when it is lower.

Consider the worked cases shown below.
INSERT INTO assay_data (compound, label_class) VALUES
  ('C=C[C@@]12CCc3cc(O)ccc3[C@H]1[C@@H](CCCCCSC#N)C[C@@]1(C)[C@H]2CC[C@@H]1O [Compound 35]', -1),
  ('CCCCCC[C@H]1C[C@@]2(C)C(CC[C@@H]2O)[C@]2(C)CCc3cc(O)ccc3C12 (stereo partly shown) [reference compound]', -1),
  ('C=C[C@@]12CCc3cc(O)ccc3[C@H]1[C@@H](CCCCCCNC)C[C@@]1(C)[C@H]2CC[C@@H]1O [Compound 24b]', 1),
  ('C=C[C@@]12CCc3cc(O)ccc3C1[C@@H](CCCCC[C@H](O)C(F)(F)F)C[C@@]1(C)C2CC[C@@H]1O (mixture of isomers) [15b D1/2]', 1),
  ('C=C[C@@]12CCc3cc(O)ccc3[C@H]1[C@@H](CCCCCC(O)(C(F)(F)F)C(F)(F)F)C[C@@]1(C)[C@H]2CC[C@@H]1O [Compound 18b]', -1),
  ('C=C[C@@]12CCc3cc(O)ccc3[C@H]1[C@@H](CCCCCN1CCCC1)C[C@@]1(C)[C@H]2CC[C@@H]1O [Compound 26a]', 1);

Is it the case that C=C[C@@]12CCc3cc(O)ccc3C1[C@@H](CCCCCC)C[C@@]1(C)C2CC[C@@H]1O (stereo partly shown) [reference compound] has EMR (EC50 )[%] ERβ reaching or exceeding 50%? -1

Is it the case that C=C[C@@]12CCc3cc(O)ccc3C1[C@@H](CCCC[C@@H](O)C(F)(F)F)C[C@@]1(C)C2CC[C@@H]1O (mixture of isomers) [15a D1/2] has EMR (EC50 )[%] ERβ reaching or exceeding 50%? -1

Is it the case that C=C[C@@]12CCc3cc(O)ccc3[C@H]1[C@@H](CCCCCCN1CCCC1)C[C@@]1(C)[C@H]2CC[C@@H]1O [Compound 26b] has EMR (EC50 )[%] ERβ reaching or exceeding 50%? 1

Is it the case that C=C[C@@]12CCc3cc(O)ccc3[C@H]1[C@@H](CCCCCCN(C)C)C[C@@]1(C)[C@H]2CC[C@@H]1O [Compound 25b] has EMR (EC50 )[%] ERβ reaching or exceeding 50%? 1

Is it the case that C=C[C@@]12CCc3cc(O)ccc3[C@H]1[C@@H](CCCCCC#N)C[C@@]1(C)[C@H]2CC[C@@H]1O [Compound 36] has EMR (EC50 )[%] ERβ reaching or exceeding 50%? -1
